# System Under Test: Cannabinoid receptor 2 (Homo sapiens)
# Sequence (P34972 whole entry): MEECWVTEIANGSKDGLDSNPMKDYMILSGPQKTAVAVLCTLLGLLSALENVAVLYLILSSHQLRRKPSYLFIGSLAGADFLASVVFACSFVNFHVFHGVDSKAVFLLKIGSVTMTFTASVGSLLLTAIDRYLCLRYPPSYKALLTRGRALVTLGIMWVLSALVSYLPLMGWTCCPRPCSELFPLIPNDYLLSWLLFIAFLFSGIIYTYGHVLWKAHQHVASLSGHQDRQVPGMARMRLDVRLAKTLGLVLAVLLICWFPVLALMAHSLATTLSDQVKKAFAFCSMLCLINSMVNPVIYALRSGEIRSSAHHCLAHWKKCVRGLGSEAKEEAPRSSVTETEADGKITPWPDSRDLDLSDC
# Protocol Description: Displacement of [3H]CP-55940 from human CB2 receptor expressed in HEK293 cell membranes
# Condition Notes: read-out: Ki
Kindly state Ki for each of the entries shown.
Please reply with the bare figure in µM and do not write the unit itself.

Tested on Cannabinoid receptor 2 (Homo sapiens): `CC1(C)Oc2cc(C34CC5CC(CC(C5)O3)C4)cc(O)c2[C@@H]2C[C@@H](O)CC[C@H]21` . Observed Ki: 1.3

Tested on Cannabinoid receptor 2 (Homo sapiens): `CC1(C)Oc2cc(CN3C4CC5CC3CC(C4)O5)cc(O)c2[C@@H]2C[C@H](O)CC[C@H]21` . Observed Ki: 15

Tested on Cannabinoid receptor 2 (Homo sapiens): `CC1(C)Oc2cc(CNC34CC5CC(CC(C5)C3)C4)cc(O)c2[C@@H]2C[C@H](O)CC[C@H]21` . Observed Ki: 10

Tested on Cannabinoid receptor 2 (Homo sapiens): `CC1(C)Oc2cc(C(=O)N3C4CC5CC3CC(C4)O5)cc(O)c2[C@@H]2C[C@H](O)CC[C@H]21` . Observed Ki: 20

Tested on Cannabinoid receptor 2 (Homo sapiens): `CC1(C)Oc2cc(N3C4CC5CC3CC(C4)O5)cc(O)c2[C@@H]2C[C@@H](O)CC[C@H]21` . Observed Ki: 14.9

Tested on Cannabinoid receptor 2 (Homo sapiens): `CC1(C)Oc2cc(C34CC5CC(CC(C5)O3)C4)cc(O)c2[C@@H]2C[C@H](O)CC[C@H]21` . Observed Ki: 0.019

Tested on Cannabinoid receptor 2 (Homo sapiens): `CC1(C)Oc2cc(N3C4CC5CC3CC(C4)O5)cc(O)c2[C@@H]2C[C@H](O)CC[C@H]21` . Observed Ki: 1.8

Tested on Cannabinoid receptor 2 (Homo sapiens): CC1(C)Oc2cc(CNC3C4CC5CC(C4)CC3C5)cc(O)c2[C@@H]2C[C@@H](O)CC[C@H]21 (stereo partly drawn) . Observed Ki: 25

----------
# System Under Test: Cannabinoid receptor 2 (Mus musculus)
# Sequence (P47936 whole entry): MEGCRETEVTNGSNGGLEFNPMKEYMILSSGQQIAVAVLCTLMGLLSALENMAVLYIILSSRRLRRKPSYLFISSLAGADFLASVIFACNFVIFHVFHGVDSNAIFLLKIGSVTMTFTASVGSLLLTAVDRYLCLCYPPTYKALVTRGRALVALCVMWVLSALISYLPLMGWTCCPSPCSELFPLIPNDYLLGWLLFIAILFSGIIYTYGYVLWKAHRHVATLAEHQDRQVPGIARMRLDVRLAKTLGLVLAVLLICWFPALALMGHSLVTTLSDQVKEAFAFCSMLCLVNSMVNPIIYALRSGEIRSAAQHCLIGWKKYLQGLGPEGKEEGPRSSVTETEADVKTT
# Protocol Description: Displacement of [3H]CP-55940 from mouse CB2 receptor expressed in HEK293 cell membranes
Kindly state pKi for each of the entries shown.
Expect pKi as a plain number equal to -log10 of the molar concentration.

Tested on Cannabinoid receptor 2 (Mus musculus): `CC1(C)Oc2cc(CN3C4CC5CC3CC(C4)O5)cc(O)c2[C@@H]2C[C@@H](O)CC[C@H]21` . Observed pKi: 5.12

Tested on Cannabinoid receptor 2 (Mus musculus): `CC1(C)Oc2cc(N3C4CC5CC3CC(C4)O5)cc(O)c2[C@@H]2C[C@H](O)CC[C@H]21` . Observed pKi: 5.92

Tested on Cannabinoid receptor 2 (Mus musculus): `CC1(C)Oc2cc(CNC34CC5CC(CC(C5)C3)C4)cc(O)c2[C@@H]2C[C@@H](O)CC[C@H]21` . Observed pKi: 5.30

Tested on Cannabinoid receptor 2 (Mus musculus): `CC1(C)Oc2cc(C34CC5CC(CC(C5)O3)C4)cc(O)c2[C@@H]2C[C@H](O)CC[C@H]21` . Observed pKi: 7.74

Tested on Cannabinoid receptor 2 (Mus musculus): `CC1(C)Oc2cc(C(=O)N3C4CC5CC3CC(C4)O5)cc(O)c2[C@@H]2C[C@H](O)CC[C@H]21` . Observed pKi: 5.60

Tested on Cannabinoid receptor 2 (Mus musculus): `CC1(C)Oc2cc(C(=O)N3C4CC5CC3CC(C4)O5)cc(O)c2[C@@H]2C[C@@H](O)CC[C@H]21` . Observed pKi: 5.07

// provenance: ChEMBL document CHEMBL1212819
